test.description: Tmax in Sprague-Dawley rat at 5 mg/kg, po
Type: ADME, organism-based
Design: dose 5 mg/kg, route oral
condition.description: in vivo
property.label: Tmax (h)
API: value field is a number in h; no unit string.

Worked cases, Tmax given:
COC(=O)N[C@H](C(=O)N1CCC[C@H]1c1ncc(-c2ccc3c(=O)c4cc(-c5cnc([C@@H]6CCCN6C(=O)[C@@H](NC(=O)OC)C(C)C)[nH]5)ccc4oc3c2)[nH]1)C(C)C : 0.5
COC(=O)N[C@H](C(=O)N1CCC[C@H]1c1ncc(-c2ccc3c(c2)Oc2ccc(-c4cnc([C@@H]5CCCN5C(=O)[C@@H](NC(=O)OC)C(C)C)[nH]4)cc2O3)[nH]1)C(C)C : 1.33
COC(=O)N[C@H](C(=O)N1CCC[C@H]1c1ncc(-c2ccc3c(c2)Cc2ccc(-c4cnc([C@@H]5CCCN5C(=O)[C@@H](NC(=O)OC)C(C)C)[nH]4)cc2O3)[nH]1)C(C)C : 3.33

Read the next record carefully.
# Tmax (molecule: "COC(=O)N[C@H](C(=O)N1CCC[C@H]1c1ncc(-c2ccc3c(c2)Oc2ccc(-c4cnc([C@@H]5CCCN5C(=O)[C@@H](NC(=O)OC)C(C)C)[nH]4)cc2C3(C)C)[nH]1)C(C)C" ) is 3

* * *

test.description: AUC(last) in beagle dog at 5 mg/kg, po
Type: ADME, organism-based, Canis lupus familiaris
Set-up: time 0 - last, dose 5 mg/kg, route oral
condition.description: plasma
property.label: AUC(0-t) (ng·h/mL)
API: value field is a number in ng·h/mL; no unit string.

# AUC(0-t) (molecule: "COC(=O)N[C@H](C(=O)N1CCC[C@H]1c1ncc(-c2ccc3c(c2)Oc2ccc(-c4cnc([C@@H]5CCCN5C(=O)[C@@H](NC(=O)OC)C(C)C)[nH]4)cc2C3(C)C)[nH]1)C(C)C" ) is 16500

* * *

test.description: Cmax in beagle dog at 5 mg/kg, po
Format: ADME, organism-based, Canis lupus familiaris
Set-up: dose 5 mg/kg, route oral
condition.description: in vivo
property.label: Cmax (ng/mL)
API: value field is a number in ng/mL; no unit string.

# Cmax (compound: "COC(=O)N[C@H](C(=O)N1CCC[C@H]1c1ncc(-c2ccc3c(c2)Oc2ccc(-c4cnc([C@@H]5CCCN5C(=O)[C@@H](NC(=O)OC)C(C)C)[nH]4)cc2C3(C)C)[nH]1)C(C)C" ) is 2760

* * *

test.description: Tmax in Sprague-Dawley rat at 5 mg/kg, po formulated with 5%MC, 95% saline
Assay type: ADME, organism-based
Parameters: dose 5 mg/kg, route oral
condition.description: in vivo
property.label: Tmax
# answer = value followed by unit

# Tmax (compound: "COC(=O)N[C@H](C(=O)N1CCC[C@H]1c1ncc(-c2ccc3c(c2)Oc2ccc(-c4cnc([C@@H]5CCCN5C(=O)[C@@H](NC(=O)OC)C(C)C)[nH]4)cc2C3(C)C)[nH]1)C(C)C" ) is 30 min

* * *

test.description: AUC(last) in cynomolgus monkey at 1 mg/kg, iv
Format: ADME, organism-based, Macaca fascicularis
Set-up: time 0 - last, dose 1 mg/kg, route intravenous
condition.description: plasma
property.label: AUC(0-t) (ng·h/mL)
API: value field is a number in ng·h/mL; no unit string.

# AUC(0-t) (molecule: "COC(=O)N[C@H](C(=O)N1CCC[C@H]1c1ncc(-c2ccc3c(c2)Oc2ccc(-c4cnc([C@@H]5CCCN5C(=O)[C@@H](NC(=O)OC)C(C)C)[nH]4)cc2C3(C)C)[nH]1)C(C)C" ) is 2380

* * *

test.description: AUC(last) in beagle dog at 1 mg/kg, iv
Format: ADME, organism-based, Canis lupus familiaris
Design: time 0 - last, dose 1 mg/kg, route intravenous
condition.description: plasma
property.label: AUC(0-t) (ng·h/mL)
API: value field is a number in ng·h/mL; no unit string.

# AUC(0-t) (molecule: "COC(=O)N[C@H](C(=O)N1CCC[C@H]1c1ncc(-c2ccc3c(c2)Oc2ccc(-c4cnc([C@@H]5CCCN5C(=O)[C@@H](NC(=O)OC)C(C)C)[nH]4)cc2C3(C)C)[nH]1)C(C)C" ) is 6180

* * *

test.description: Cmax in Sprague-Dawley rat at 5 mg/kg, po
Format: ADME, organism-based
Parameters: dose 5 mg/kg, route oral
condition.description: in vivo
property.label: Cmax (ng/mL)
API: value field is a number in ng/mL; no unit string.

Worked cases, Cmax given:
COC(=O)N[C@H](C(=O)N1CCC[C@H]1c1ncc(-c2ccc3c(=O)c4cc(-c5cnc([C@@H]6CCCN6C(=O)[C@@H](NC(=O)OC)C(C)C)[nH]5)ccc4oc3c2)[nH]1)C(C)C : 96.5
COC(=O)N[C@H](C(=O)N1CCC[C@H]1c1ncc(-c2ccc3c(c2)Oc2ccc(-c4cnc([C@@H]5CCCN5C(=O)[C@@H](NC(=O)OC)C(C)C)[nH]4)cc2C3(C)C)[nH]1)C(C)C : 874
COC(=O)N[C@H](C(=O)N1CCC[C@H]1c1ncc(-c2ccc3c(c2)Cc2ccc(-c4cnc([C@@H]5CCCN5C(=O)[C@@H](NC(=O)OC)C(C)C)[nH]4)cc2O3)[nH]1)C(C)C : 380

# Cmax (compound: "COC(=O)N[C@H](C(=O)N1CCC[C@H]1c1ncc(-c2ccc3c(c2)Oc2ccc(-c4cnc([C@@H]5CCCN5C(=O)[C@@H](NC(=O)OC)C(C)C)[nH]4)cc2O3)[nH]1)C(C)C" ) is 339

* * *

test.description: Tmax in cynomolgus monkey at 250 mg/kg, po
Format: ADME, organism-based, Macaca fascicularis
Design: dose 250 mg/kg, route oral
condition.description: in vivo
property.label: Tmax
# answer = value followed by unit

# Tmax (molecule: "COC(=O)N[C@H](C(=O)N1CCC[C@H]1c1ncc(-c2ccc3c(c2)Oc2ccc(-c4cnc([C@@H]5CCCN5C(=O)[C@@H](NC(=O)OC)C(C)C)[nH]4)cc2C3(C)C)[nH]1)C(C)C" ) is 4 h

* * *

test.description: Tmax in beagle dog at 5 mg/kg, po
Type: ADME, organism-based, Canis lupus familiaris
Set-up: dose 5 mg/kg, route oral
condition.description: in vivo
property.label: Tmax (h)
API: value field is a number in h; no unit string.

# Tmax (molecule: "COC(=O)N[C@H](C(=O)N1CCC[C@H]1c1ncc(-c2ccc3c(c2)Oc2ccc(-c4cnc([C@@H]5CCCN5C(=O)[C@@H](NC(=O)OC)C(C)C)[nH]4)cc2C3(C)C)[nH]1)C(C)C" ) is 1

* * *

test.description: AUC(last) in Sprague-Dawley rat at 5 mg/kg, po formulated with 5%MC, 95% saline
Format: ADME, organism-based
Set-up: time 0 - last, dose 5 mg/kg, route oral
condition.description: plasma
property.label: AUC(0-t)
# answer = value followed by unit

# AUC(0-t) (compound: "COC(=O)N[C@H](C(=O)N1CCC[C@H]1c1ncc(-c2ccc3c(c2)Oc2ccc(-c4cnc([C@@H]5CCCN5C(=O)[C@@H](NC(=O)OC)C(C)C)[nH]4)cc2C3(C)C)[nH]1)C(C)C" ) is 4120 ng·h/mL

* * *

test.description: Drug level in Sprague-Dawley rat liver at 5 mg/kg, po measured 4 hrs post dose
Assay type: ADME, organism-based
Parameters: dose 5 mg/kg, route oral
condition.description: read-out: Drug uptake
property.label: concentration at 4 h (ng/mL)
API: value field is a number in ng/mL; no unit string.

Worked cases, concentration at 4 h given:
COC(=O)N[C@H](C(=O)N1CCC[C@H]1c1ncc(-c2ccc3c(=O)c4cc(-c5cnc([C@@H]6CCCN6C(=O)[C@@H](NC(=O)OC)C(C)C)[nH]5)ccc4oc3c2)[nH]1)C(C)C : 25
COC(=O)N[C@H](C(=O)N1CCC[C@H]1c1ncc(-c2ccc3c(c2)Oc2ccc(-c4cnc([C@@H]5CCCN5C(=O)[C@@H](NC(=O)OC)C(C)C)[nH]4)cc2C3(C)C)[nH]1)C(C)C : 2610
COC(=O)N[C@H](C(=O)N1CCC[C@H]1c1ncc(-c2ccc3c(c2)Oc2ccc(-c4cnc([C@@H]5CCCN5C(=O)[C@@H](NC(=O)OC)C(C)C)[nH]4)cc2O3)[nH]1)C(C)C : 973

# concentration at 4 h (compound: "COC(=O)N[C@H](C(=O)N1CCC[C@H]1c1ncc(-c2ccc3c(c2)Cc2ccc(-c4cnc([C@@H]5CCCN5C(=O)[C@@H](NC(=O)OC)C(C)C)[nH]4)cc2O3)[nH]1)C(C)C" ) is 462

* * *

test.description: Tmax in cynomolgus monkey at 75 mg/kg, po
Format: ADME, organism-based, Macaca fascicularis
Parameters: dose 75 mg/kg, route oral
condition.description: in vivo
property.label: Tmax (h)
API: value field is a number in h; no unit string.

# Tmax (molecule: "COC(=O)N[C@H](C(=O)N1CCC[C@H]1c1ncc(-c2ccc3c(c2)Oc2ccc(-c4cnc([C@@H]5CCCN5C(=O)[C@@H](NC(=O)OC)C(C)C)[nH]4)cc2C3(C)C)[nH]1)C(C)C" ) is 3
